Reported values of GI50 for individual entries
System: UO-31
assayNotes: NCI tumour cell line growth inhibition, 48 h
Active and inactive are the calls of the source. Rule as the data show it: active = GI50 up to about 1.1 µM and inactive = higher.
attributeMeasured: GI50

| molecule | experimentalValue |
| --- | --- |
| Cc1ccccc1C(C#N)C(=O)C(=O)Nc1nc([N+](=O)[O-])cs1 (stereo unspecified) | > 100 µM (inactive) |
| OC[C@@H](O)[C@H]1NC[C@@H](O)[C@H]1O | > 100 µM (inactive) |
| CNC(=O)c1nn[nH]c1Sc1c([N+](=O)[O-])ncn1C | > 100 µM (inactive) |
| COc1ccc(N[S+]([O-])c2ccc(Cl)cc2)cc1 (stereo unspecified) | 14.6 µM (inactive) |
| CSc1nc2c(nc(N)n2C2OC(CO)C(O)C(O)C2O)c(=O)[nH]1 (stereo unspecified) | > 100 µM (inactive) |
| COC(=O)c1ccc(Oc2nc3ccc(C(F)(F)F)cc3nc2-c2ccccc2)cc1 | > 100 µM (inactive) |
